- protocol: NCI Yeast Anticancer Drug Screen. Data for the mec2-1 strain (AID 157)
- assaySetup: S. cerevisiae mec2-1 strain, at 50.0 µM
- Protocol: Growth inhibition of yeast strains with defined genetic alterations is measured as a screen for potential anti-cancer activity. Selected strains with alterations in DNA damage repair or cell cycle control were exposed to compounds and growth inhibition was measured relative to vehicle treated controls. The strain used in this assay is mec2-1
This is part of a sample that, as a whole, favours compounds with a hit. Of some 79,000 tested, about 15% had one in any assay. Active and inactive are the calls of the source. Cut-off read from the data, not from the text of the source: active = growth inhibition above about 70%; inactive = the rest.
Lab note: assign the record to one of t = active, f = inactive

Reference set (4 entries):
CCCCCC(C)(O)C#CC(C)(O)CCCCC (stereo unspecified)
f
O=S(=O)(CC(Br)Br)c1ccccc1
t
CC1CCC2(CC1)NC1=C(CC(C)CC1)C1=C2CC(C)CC1 (stereo unspecified)
f
CCCCOc1ccc(NC(=S)Nc2ccc(OCCN(CC)CC)cc2)cc1
f

Q: // outcome(item) with item = `O=S(=O)(Nc1ccc2c3c(cccc13)C=C2)c1ccccc1`
Result: t

Q: State the result this test recorded for `Cc1ccc(NC(=S)SCc2ccc3c(c2)OCO3)cc1Br` .
Result: t

Q: Just curious, what result did `CC(=O)Nc1ccc(N=C2c3ccccc3-c3ccc(NC(C)=O)cc32)cc1` get here?
Result: t

Q: Test call for this compound, please: `O=C(O)C1(Cc2ccc3c(c2)CCC3)Cc2cc3c(cc2C1)CCC3`
Result: t

Q: Please let me know the test result on file for CC1(c2ccccc2)OC(=O)C=CC1=O (stereo unspecified) .
Result: t

Q: How was CC(=O)Oc1ccc2c(c1)CCC1C2CCC2(C)C1CCC21CO1 (stereo unspecified) classified in this test?
Result: f

Q: Fill in: this test's call for CC(CN1CCCCCCC1)C(c1ccccc1)c1ccccc1 (stereo unspecified) is ___
Result: f
